This collection of values is drawn from ChEMBL document CHEMBL4382240.

- Measured target: Butyrylcholinesterase (Rattus norvegicus, UniProt Q9JKC1)
- Sequence (Q9JKC1 whole entry): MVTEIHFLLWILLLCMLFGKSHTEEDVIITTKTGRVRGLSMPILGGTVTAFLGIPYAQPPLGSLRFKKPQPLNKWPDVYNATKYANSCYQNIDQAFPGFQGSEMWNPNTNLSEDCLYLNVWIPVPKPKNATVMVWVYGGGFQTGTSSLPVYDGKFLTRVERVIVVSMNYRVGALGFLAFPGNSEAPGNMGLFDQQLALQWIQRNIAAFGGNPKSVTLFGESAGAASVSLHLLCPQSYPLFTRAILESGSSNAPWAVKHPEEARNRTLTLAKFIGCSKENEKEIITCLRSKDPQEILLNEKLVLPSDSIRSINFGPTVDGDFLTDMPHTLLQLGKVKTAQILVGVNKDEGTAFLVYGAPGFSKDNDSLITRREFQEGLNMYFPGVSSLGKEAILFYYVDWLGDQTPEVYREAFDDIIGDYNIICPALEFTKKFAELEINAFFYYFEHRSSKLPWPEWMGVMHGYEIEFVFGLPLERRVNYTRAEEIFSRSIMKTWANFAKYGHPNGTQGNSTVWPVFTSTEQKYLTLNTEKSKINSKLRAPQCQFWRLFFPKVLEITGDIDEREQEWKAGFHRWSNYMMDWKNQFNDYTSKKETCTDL
- Method notes: Inhibition of rat serum BuChE using butyrylthiocholine iodide as substrate after 15 mins by Ellman's method
pIC50: −log10 of the molar value.
Reported property: pIC50

Field: example entries. Status: answers known.
| Chemical smiles | Measured target | Reported property | Recorded result |
| --- | --- | --- | --- |
| CN(CCCCCCNC(=O)c1cc(O)c(C(=O)NCCCCCCN(C)Cc2ccccc2)cc1O)Cc1ccccc1 | Butyrylcholinesterase (Rattus norvegicus, UniProt Q9JKC1) | pIC50 | 4.38 |
| CN(CCCNC(=O)c1cc(O)c(C(=O)NCCCN(C)Cc2ccccc2)cc1O)Cc1ccccc1 | Butyrylcholinesterase (Rattus norvegicus, UniProt Q9JKC1) | pIC50 | < 4.00 |
| CCN(CCCCNC(=O)c1cc(O)c(C(=O)NCCCCN(CC)Cc2ccccc2)cc1O)Cc1ccccc1 | Butyrylcholinesterase (Rattus norvegicus, UniProt Q9JKC1) | pIC50 | < 4.00 |
| CCN(CCCCNC(=O)c1cc(O)c(C(=O)NCCCCN(CC)Cc2ccccc2N(C)C)cc1O)Cc1ccccc1N(C)C | Butyrylcholinesterase (Rattus norvegicus, UniProt Q9JKC1) | pIC50 | < 4.00 |
| CCN(CCCCCCNC(=O)c1cc(O)c(C(=O)NCCCCCCN(CC)Cc2ccccc2OC)cc1O)Cc1ccccc1OC | Butyrylcholinesterase (Rattus norvegicus, UniProt Q9JKC1) | pIC50 | < 4.00 |

# return recorded pIC50 for entry CCN(CCCNC(=O)c1cc(O)c(C(=O)NCCCN(CC)Cc2ccccc2)cc1O)Cc1ccccc1 < 4.00

# return recorded pIC50 for entry CCN(CCCCNC(=O)c1cc(O)c(C(=O)NCCCCN(CC)Cc2ccccc2OC)cc1O)Cc1ccccc1OC < 4.00

# return recorded pIC50 for entry COc1ccccc1CN(C)CCCNC(=O)c1cc(O)c(C(=O)NCCCN(C)Cc2ccccc2OC)cc1O 4.76
